Tested on: Bacillus subtilis
Test: Antibacterial activity against Bacillus subtilis after 24 hrs by micro broth dilution method
Assay type: functional
RECORDED_METRIC: MIC (µg/mL)
Note: unit µg/mL is implicit; provide only the numeric part.

Look up and state reported MIC for CCn1cc(C(=O)O)c(=O)c2cc(F)c(N3CCNCC3)cc21
4

Consider the compound Cc1ncc([N+](=O)[O-])n1CCCCCCCCCCOCc1c(-c2ccccc2)nc2sc3ccccc3n12 . State its measured MIC.
16

Consider the compound O=[N+]([O-])c1cn(CCCCCOCc2c(-c3ccccc3)nc3sc4ccccc4n23)cn1 . State its measured MIC.
128

Using the record for c1ccc(-c2nc3sc4ccccc4n3c2COCCCCCCCCCCn2cncn2)cc1 , state its measured MIC.
16

Please supply the value of reported MIC for the item BrCCCOCc1c(-c2ccccc2)nc2sc3ccccc3n12
4

Write down MIC measured for item BrCCCCCCCCCCOCc1c(-c2ccccc2)nc2sc3ccccc3n12
8

---

System: Candida albicans
Test: Antifungal activity against Candida albicans after 24 hrs by two fold serial dilution based spectrophotometric analysis
Assay type: functional
Exercise: for every item that follows, state its recorded log10 of MIC.
Hello, just confirming the data are log10 of MIC with units of µg/mL.

Retrieve log10 of MIC on Candida albicans; query c1ccc(-c2nc3sc4ccccc4n3c2COCCCn2cncn2)cc1
0.60

Print Candida albicans log10 of MIC for BrCCCCCCCCCCOCc1c(-c2ccccc2)nc2sc3ccccc3n12 .
0.60

Name the recorded log10 of MIC of OC(Cn1cncn1)(Cn1cncn1)c1ccc(F)cc1F , assay system Candida albicans.
0.00

Jot down log10 of MIC (Candida albicans) of O=[N+]([O-])c1cn(CCCCCOCc2c(-c3ccccc3)nc3sc4ccccc4n23)cn1 .
1.20

System Candida albicans. Read-out log10 of MIC. Item CCOc1ccc2c(c1)sc1nc(-c3ccccc3)c(COCCCCCCCCCCn3c([N+](=O)[O-])cnc3C)n12 . Report value.
2.11

Answer with log10 of MIC of Cc1ncc([N+](=O)[O-])n1CCCOCc1c(-c2ccccc2)nc2sc3ccccc3n12 measured for Candida albicans.
0.30

// fetch log10 of MIC; item: c1ccc(-c2nc3sc4ccccc4n3c2COCCCCCCCCCCn2cncn2)cc1 ; system: Candida albicans
1.20

Lab note: Candida albicans assay, enter log10 of MIC for CCOc1ccc2c(c1)sc1nc(-c3ccccc3)c(COCCCCCBr)n12 here
1.20

Recall the reported log10 of MIC of Cc1ncc([N+](=O)[O-])n1CCCCCOCc1c(-c2ccccc2)nc2sc3ccccc3n12 on Candida albicans and write it down.
0.90

Give reported log10 of MIC for CCOc1ccc2c(c1)sc1nc(-c3ccccc3)c(COCCCCCCCCCCn3cnc([N+](=O)[O-])c3)n12 (Candida albicans)
2.41

Check Candida albicans data and give log10 of MIC for CCOc1ccc2c(c1)sc1nc(-c3ccccc3)c(COCCCn3c([N+](=O)[O-])cnc3C)n12 .
1.51

For Candida albicans, give the measured log10 of MIC of the entry BrCCCCCOCc1c(-c2ccccc2)nc2sc3ccccc3n12
0.60

---

Please go through the items and note down their MIC.
Tested on: Candida albicans
Experiment: Antifungal activity against Candida albicans after 24 hrs by two fold serial dilution based spectrophotometric analysis
Type: functional
The reply should contain only the number, in µg/mL.

Specify MIC for Cc1ncc([N+](=O)[O-])n1CCCCCCCCCCOCc1c(-c2ccccc2)nc2sc3ccccc3n12 and stop.
8

Kindly indicate its recorded MIC. Item: O=[N+]([O-])c1cn(CCCOCc2c(-c3ccccc3)nc3sc4ccccc4n23)cn1
2

Specify measured MIC for CCOc1ccc2c(c1)sc1nc(-c3ccccc3)c(COCCCCCn3cnc([N+](=O)[O-])c3)n12 .
128

Read off the recorded MIC for O=[N+]([O-])c1cn(CCCCCCCCCCOCc2c(-c3ccccc3)nc3sc4ccccc4n23)cn1
64

Give a short answer stating reported MIC for CCOc1ccc2c(c1)sc1nc(-c3ccccc3)c(COCCCn3cncn3)n12 .
16

Answer with the recorded MIC of BrCCCOCc1c(-c2ccccc2)nc2sc3ccccc3n12 only.
4

State its MIC: CCOc1ccc2c(c1)sc1nc(-c3ccccc3)c(COCCCCCn3c([N+](=O)[O-])cnc3C)n12
32

Read the entry c1ccc(-c2nc3sc4ccccc4n3c2COCCCCCn2cncn2)cc1 and write its reported MIC.
4

Quick one: give measured MIC for CCOc1ccc2c(c1)sc1nc(-c3ccccc3)c(COCCCn3cnc([N+](=O)[O-])c3)n12
16
